# credit: PubChem BioAssay (EPA / NIEHS)

Assay: CCTE_Shafer_MEA_acute_interburst_interval_mean: CCTE's Neural Acute Assay for Mean Interburst Interval, Shafer Lab (AID 2284016);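 note: percent change of mean interburst interval versus each well's own pre-dose baseline; curves fitted for decrease in interburst interval relative to DMSO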
Method: CCTE_Shafer_MEA_acute assay is conducted using Axion Biosystems 48 well microelectrode array (MEA) plates and Maestro recording system. Each well of the MEA plate contains a grid of 16 microelectrodes embedded in the culture surface. Electrically active cells, such as neurons, can be cultured over the electrodes, and electrical activity in these cells can be recorded extracellularly. […]
Activity calls are given as the source filed them. Rule for the calls: active = hit-call score of the fitted dose curve at least 0.9, where 1 is the maximum; inactive = score below 0.9.
test.readout: AC50

Some molecules with known AC50 results, for comparison:
| molecule | test.readout | measurement |
| --- | --- | --- |
| CCC(=O)C(CC(C)N(C)C)(c1ccccc1)c1ccccc1 (configuration not stated) | AC50 | inactive |
| CC(C)(C)CC(C)(C)c1ccc(O)cc1 | AC50 | 5 µM (active) |
| C[C@]12CCC(=O)C[C@@H]1CC[C@@H]1[C@@H]2CC[C@]2(C)[C@@H](O)CC[C@@H]12 | AC50 | inactive |
| CCN1CCC2(CC1)COc1cc3c(cc12)N(C(=O)c1ccc(-c2ccc(-c4nnc(C)o4)cc2C)cc1)CC3 | AC50 | inactive |
| CC(=O)OC(c1ccccc1)C(Cl)(Cl)Cl (configuration not stated) | AC50 | inactive |

INPUT: Requested field: AC50. Item: `COC(=O)Cc1ccccc1`
OUTPUT: inactive

INPUT: Requested field: AC50. Item: `O=C(Nc1ccc2[nH]ccc2c1)c1cc2cc(F)ccc2n1Cc1cccc(F)c1`
OUTPUT: 4.2 µM (active)

INPUT: Requested field: AC50. Item: `CC(C)(c1ccccc1)c1ccc(O)c(C(C)(C)c2ccccc2)c1`
OUTPUT: 4.19 µM (active)

INPUT: Requested field: AC50. Item: `CCCCCCCCc1ccc(O)cc1`
OUTPUT: 5 µM (active)

INPUT: Requested field: AC50. Item: `C=C(C)C(=O)[O][Sn]([CH2]CCC)([CH2]CCC)[CH2]CCC`
OUTPUT: inactive

INPUT: Requested field: AC50. Item: `CC(=O)[O][Hg][c]1ccccc1`
OUTPUT: 0.941 µM (active)

INPUT: Requested field: AC50. Item: `CCC(C)(C)c1ccc(O)c(C(C)(C)CC)c1`
OUTPUT: inactive

----------
read-out: urokinase plasminogen activator (uPA), PLAU (gene 5328); assay: BSK_BE3C_uPA: BioMAP Diversity Plus: BE3C Assay for urokinase plasminogen activator (uPA) Biomarker Activity (AID 2283038); conditions: primary human bronchial epithelial cells; actives raise or lower the signal
Calls of active or inactive are those of the source. Rule for the calls: active = hit-call score of the fitted dose curve at least 0.9, where 1 is the maximum; inactive = score below 0.9.
Entry note: the call must match one of active, inactive

| compound | label.class |
| --- | --- |
| CN(C)N=O | inactive |
| COC[C@H](C)N(C(=O)CCl)c1c(C)csc1C | inactive |
| CCOC(=O)/C=C(C)/C=C/C[C@@H](C)CCCC(C)C | active |
| ClC(Cl)=C(Cl)C(Cl)=C(Cl)Cl | active |
| O=C(Nc1ccc2[nH]ccc2c1)c1cc2cc(F)ccc2n1Cc1cccc(F)c1 | inactive |

INPUT: Hi team, can someone confirm the assay call for `CC(C)(C)CC(C)(C)c1ccc(O)cc1` ?
OUTPUT: active

INPUT: Hi team, can someone confirm the assay call for `CCC(C)(C)c1ccc(O)c(C(C)(C)CC)c1` ?
OUTPUT: active

INPUT: Hi team, can someone confirm the assay call for `CC(=O)[O][Hg][c]1ccccc1` ?
OUTPUT: active

INPUT: Hi team, can someone confirm the assay call for CC(=O)C(Cl)C(=O)N(C)C (stereo not given) ?
OUTPUT: inactive

INPUT: Hi team, can someone confirm the assay call for `O=[N+]([O-])c1ccc(O)c([N+](=O)[O-])c1` ?
OUTPUT: inactive

INPUT: Hi team, can someone confirm the assay call for `C=C(C)C(=O)[O][Sn]([CH2]CCC)([CH2]CCC)[CH2]CCC` ?
OUTPUT: active

INPUT: Hi team, can someone confirm the assay call for `C(=NC1CCCCC1)=NC1CCCCC1` ?
OUTPUT: active

INPUT: Hi team, can someone confirm the assay call for `COP(=S)(OC)Oc1cc(Cl)c(Cl)cc1Cl` ?
OUTPUT: inactive

INPUT: Hi team, can someone confirm the assay call for `ClC1=C(Cl)[C@]2(Cl)[C@H]3[C@H]([C@H]4C=C[C@H]3C4)[C@@]1(Cl)C2(Cl)Cl` ?
OUTPUT: inactive

----------
read-out: Monocyte Chemoattractant Protein-1 (MCP1), CCL2 (gene 6347); assay: BSK_LPS_MCP1: BioMAP Diversity Plus: LPS Assay for Monocyte Chemoattractant Protein-1 (MCP1) Biomarker Activity (AID 2283081); details: primary human HUVEC with PBMC; actives raise or lower the signal
Calls of active or inactive are those of the source. The calls were made as follows: active = hit-call score of the fitted dose curve at least 0.9, where 1 is the maximum; inactive = score below 0.9.
Entry note: the call must match one of t (active), f (inactive)

| compound | label.class |
| --- | --- |
| ClC1=C(Cl)[C@]2(Cl)[C@H]3[C@H]([C@H]4C=C[C@H]3C4)[C@@]1(Cl)C2(Cl)Cl | f |
| O=C(O)C(Cl)(Cl)Cl | f |
| NC(=O)O | f |
| CCOP(=S)(OCC)Oc1nc(Cl)c(Cl)cc1Cl | f |
| O=Cc1cccc(Oc2ccccc2)c1 | f |
| CCOP(=S)(OCC)SCCS(=O)(=O)CC | f |
| O=C1C2(Cl)C3(Cl)C4(Cl)C(Cl)(Cl)C5(Cl)C3(Cl)C1(Cl)C5(Cl)C24Cl (stereo not drawn) | t |
| CCCCCCCCc1ccc(O)cc1 | t |
| CCOC(=O)/C=C(C)/C=C/C[C@@H](C)CCCC(C)C | t |
| NC(=S)Nc1ccccc1 | f |

INPUT: Hi team, can someone confirm the assay call for `ClCC(Cl)CCl` ?
OUTPUT: f

INPUT: Hi team, can someone confirm the assay call for `O=S(=O)(c1ccc(Cl)cc1)c1ccc(Cl)cc1` ?
OUTPUT: f

INPUT: Hi team, can someone confirm the assay call for `O=C(Nc1ccc2[nH]ccc2c1)c1cc2cc(F)ccc2n1Cc1cccc(F)c1` ?
OUTPUT: t

----------
test: BSK_CASM3C_Proliferation: Cell Proliferation Assessment in the BioMAP Diversity Plus: CASM3C Assay (AID 2283047); settings: primary human coronary artery smooth muscle cells;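 note: sulforhodamine B total protein stain as relative cell number at 560 nm; sub-confluent cells exposed 48 h before staining; fitted both ways against DMSO so gain or loss of cell number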
The source made the active and inactive calls. Rule for the calls: active = hit-call score of the fitted dose curve at least 0.9, where 1 is the maximum; inactive = score below 0.9.
Entry note: the call must match one of active, inactive

Observe how each entry below is paired with its result.
| compound | label.class |
| --- | --- |
| COP(=S)(OC)Oc1ccc(S(=O)(=O)N(C)C)cc1 | inactive |
| OCc1ccco1 | inactive |
| CC(=O)C(Cl)C(=O)N(C)C (configuration not stated) | active |
| CC(C)(C)CC(C)(C)c1ccc(O)cc1 | active |
| O=C1C2(Cl)C3(Cl)C4(Cl)C(Cl)(Cl)C5(Cl)C3(Cl)C1(Cl)C5(Cl)C24Cl (configuration not stated) | active |

INPUT: Hi team, can someone confirm the assay call for CC(=O)OC(c1ccccc1)C(Cl)(Cl)Cl (configuration not stated) ?
OUTPUT: inactive

INPUT: Hi team, can someone confirm the assay call for `O=C(O)C(F)(F)C(F)(F)C(F)(F)C(F)(F)C(F)(F)C(F)(F)F` ?
OUTPUT: inactive

----------
test: ATG_AP_2_CIS: Attagene CIS-FACTORIAL HepG2 Assay for human Activator Protein 2 (AP-2) (AID 2282932); conditions: HepG2 AP-2 cis-reporter, Attagene transcription factor profiling; actives raise or lower the signal
Active and inactive are the calls of the source. How the source made its calls: active means hit-call score of the fitted dose curve at least 0.9, where 1 is the maximum; inactive means score below 0.9.
Entry note: the call must match one of yes (1) = active, no (0) = inactive

INPUT: Hi team, can someone confirm the assay call for `CCOP(=S)(OCC)SCCS(=O)(=O)CC` ?
OUTPUT: no (0)

INPUT: Hi team, can someone confirm the assay call for `O=C/C=C/c1ccccc1` ?
OUTPUT: no (0)

INPUT: Hi team, can someone confirm the assay call for `O=C(NCO)NCO` ?
OUTPUT: no (0)

INPUT: Hi team, can someone confirm the assay call for `N#CN=C(N)N` ?
OUTPUT: no (0)

INPUT: Hi team, can someone confirm the assay call for `COP(=O)(OC)OC` ?
OUTPUT: no (0)

INPUT: Hi team, can someone confirm the assay call for `CC(C)(C)CC(C)(C)c1ccc(O)cc1` ?
OUTPUT: no (0)

INPUT: Hi team, can someone confirm the assay call for `CCNc1nc(NC(C)(C)C)nc(SC)n1` ?
OUTPUT: no (0)

INPUT: Hi team, can someone confirm the assay call for `C[C@]12CCC(=O)C[C@@H]1CC[C@@H]1[C@@H]2CC[C@]2(C)[C@@H](O)CC[C@@H]12` ?
OUTPUT: no (0)

INPUT: Hi team, can someone confirm the assay call for `C[C@H]1O[C@@H](O[C@H]2[C@@H](O)C[C@H](O[C@H]3[C@@H](O)C[C@H](O[C@H]4CC[C@@]5(C)[C@H](CC[C@@H]6[C@@H]5CC[C@]5(C)[C@@H](C7=CC(=O)OC7)CC[C@]65O)C4)O[C@@H]3C)O[C@@H]2C)C[C@H](O)[C@@H]1O` ?
OUTPUT: yes (1)

INPUT: Hi team, can someone confirm the assay call for `COc1ccccc1OC` ?
OUTPUT: no (0)

INPUT: Hi team, can someone confirm the assay call for `C[C@H]1CCCC(=O)CCC/C=C/c2cc(O)cc(O)c2C(=O)O1` ?
OUTPUT: no (0)
